Target: NAD-dependent protein deacetylase sirtuin-7 (Homo sapiens) (UniProt Q9NRC8)
Sequence (Q9NRC8 whole entry, the tested form may be a part): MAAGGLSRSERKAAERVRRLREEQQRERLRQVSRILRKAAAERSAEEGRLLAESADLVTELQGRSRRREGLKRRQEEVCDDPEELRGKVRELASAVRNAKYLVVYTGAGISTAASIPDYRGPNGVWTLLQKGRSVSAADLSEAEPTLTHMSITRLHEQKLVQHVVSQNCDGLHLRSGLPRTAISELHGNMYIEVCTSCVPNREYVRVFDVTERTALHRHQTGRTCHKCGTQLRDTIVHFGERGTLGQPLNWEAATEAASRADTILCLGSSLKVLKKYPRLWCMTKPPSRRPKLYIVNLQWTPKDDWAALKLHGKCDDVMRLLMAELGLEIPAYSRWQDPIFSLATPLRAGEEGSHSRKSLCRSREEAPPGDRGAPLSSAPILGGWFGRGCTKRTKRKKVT
Assay: Substrate activity at human N-terminal His-tagged SIRT7 (68 to 354 residues) expressed in Escherichia coli at 0.5 uM measured after 2 hrs in presence of NAD+ and trypsin by fluorescence assay
*1 amine or outer side, *2 acyl side, *3 side chain or, on linkers, in order; H or OH if unused. Where a SMILES comes first, the peptide text is derived from it. The star is where a group is joined. AMC = Cc1cc(=O)oc2cc(N*)ccc12; Suc = O=C(CCC(=O)[*:2])[*:1]; Decanoyl = CCCCCCCCCC(=O)*
So I've got a bunch of compounds here, and I need their Activity values.
Numeric only. Scale: RFU

Reported Activity for CC(=O)N[C@@H](CC(C)C)C(=O)NCC(=O)N[C@@H](CO)C(=O)N[C@@H](CCCCNC(=O)CCC(=O)O)C(=O)Nc1ccc2c(C)cc(=O)oc2c1 (Ac-LGSK(Suc)-{AMC}) was 0.28

Reported Activity for CC(=O)NCCCC[C@H](NC(=O)[C@H](CCCCN)NC(=O)[C@H](Cc1cnc[nH]1)NC(=O)[C@H](CCCNC(=N)N)NC(C)=O)C(=O)Nc1ccc2c(C)cc(=O)oc2c1 (Ac-RHKK(Ac)-{AMC}) was 0.39

Reported Activity for CCCCCCCCCC(=O)NCCCC[C@H](NC(=O)[C@H](CCCNC(=N)N)NC(=O)[C@H](CC(C)C)NC(=O)[C@H](CC(=O)O)NC(C)=O)C(=O)Nc1ccc2c(C)cc(=O)oc2c1 (Ac-DLRK(Decanoyl)-{AMC}) was 0.34

Reported Activity for CCCCCCCCCC(=O)NCCCC[C@H](NC(=O)[C@H](CCCNC(=N)N)NC(=O)[C@H](C)NC(=O)[C@@H](NC(C)=O)[C@@H](C)O)C(=O)Nc1ccc2c(C)cc(=O)oc2c1 (Ac-TARK(Decanoyl)-{AMC}) was 0.35

Reported Activity for CCCCCCCCCC(=O)NCCCC[C@H](NC(=O)[C@H](CCCCN)NC(=O)[C@@H]1CCCN1C(=O)[C@H](CC(N)=O)NC(C)=O)C(=O)Nc1ccc2c(C)cc(=O)oc2c1 (Ac-NPKK(Decanoyl)-{AMC}) was 0.29

Reported Activity for CCCCCCCCCC(=O)NCCCC[C@H](NC(=O)[C@H](CCC(N)=O)NC(=O)[C@@H](NC(=O)[C@H](CCCCN)NC(C)=O)C(C)C)C(=O)Nc1ccc2c(C)cc(=O)oc2c1 (Ac-KVQK(Decanoyl)-{AMC}) was 0.6

Reported Activity for CC(=O)NCCCC[C@H](NC(=O)[C@H](CO)NC(=O)[C@H](Cc1ccccc1)NC(=O)[C@H](CC(=O)O)NC(C)=O)C(=O)Nc1ccc2c(C)cc(=O)oc2c1 (Ac-DFSK(Ac)-{AMC}) was 0.39

Reported Activity for CC(=O)NCCCC[C@H](NC(=O)[C@H](CCCNC(=N)N)NC(=O)[C@H](CO)NC(=O)[C@H](CC(N)=O)NC(C)=O)C(=O)Nc1ccc2c(C)cc(=O)oc2c1 (Ac-NSRK(Ac)-{AMC}) was 0.38

Reported Activity for CCCCCCCCCC(=O)NCCCC[C@H](NC(=O)[C@@H](NC(=O)[C@H](CO)NC(=O)[C@H](CO)NC(C)=O)[C@@H](C)CC)C(=O)Nc1ccc2c(C)cc(=O)oc2c1 (Ac-SSIK(Decanoyl)-{AMC}) was 0.29

Reported Activity for CCCCCCCCCC(=O)NCCCC[C@H](NC(=O)[C@H](CC(=O)O)NC(=O)[C@@H](NC(=O)[C@H](CCC(=O)O)NC(C)=O)[C@@H](C)O)C(=O)Nc1ccc2c(C)cc(=O)oc2c1 (Ac-ETDK(Decanoyl)-{AMC}) was 0.28

* * *

Biological target: NAD-dependent protein deacetylase sirtuin-2 (Homo sapiens) (UniProt Q8IXJ6)
Sequence (Q8IXJ6 whole entry, the tested form may be a part): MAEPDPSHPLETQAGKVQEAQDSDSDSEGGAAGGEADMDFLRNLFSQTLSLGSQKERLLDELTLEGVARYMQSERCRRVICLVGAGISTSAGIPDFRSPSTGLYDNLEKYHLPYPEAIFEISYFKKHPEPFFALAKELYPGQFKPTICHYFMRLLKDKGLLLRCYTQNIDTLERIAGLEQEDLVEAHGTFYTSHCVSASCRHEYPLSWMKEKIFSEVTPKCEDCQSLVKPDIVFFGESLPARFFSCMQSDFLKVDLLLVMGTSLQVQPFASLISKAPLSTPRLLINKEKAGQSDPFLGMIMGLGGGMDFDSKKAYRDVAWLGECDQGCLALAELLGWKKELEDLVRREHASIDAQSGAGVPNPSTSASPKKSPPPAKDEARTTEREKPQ
Experiment: Substrate activity at human N-terminal His-tagged SIRT2 (56 to 356 residues) expressed in Escherichia coli at 0.5 uM measured after 2 hrs in presence of NAD+ and trypsin by fluorescence assay
Where a SMILES comes first, the peptide text is derived from it. The star is where a group is joined. AMC = Cc1cc(=O)oc2cc(N*)ccc12
quantity: Activity
Form entry: enter the amount, then its unit.

Reported Activity for CC[C@H](C)[C@H](NC(=O)[C@H](CC(C)C)NC(=O)[C@H](CCCNC(=N)N)NC(C)=O)C(=O)N[C@@H](CCCCNC(C)=O)C(=O)Nc1ccc2c(C)cc(=O)oc2c1 (Ac-RLIK(Ac)-{AMC}) was 0.66 RFU

Reported Activity for CC(=O)NCCCC[C@H](NC(=O)[C@H](CCCNC(=N)N)NC(=O)[C@H](C)NC(=O)[C@@H](NC(C)=O)[C@@H](C)O)C(=O)Nc1ccc2c(C)cc(=O)oc2c1 (Ac-TARK(Ac)-{AMC}) was 0.2 RFU

Reported Activity for CC(=O)NCCCC[C@H](NC(=O)[C@H](CC(C)C)NC(=O)[C@H](CCCCN)NC(=O)[C@H](Cc1ccc(O)cc1)NC(C)=O)C(=O)Nc1ccc2c(C)cc(=O)oc2c1 (Ac-YKLK(Ac)-{AMC}) was 0.52 RFU

* * *

Molecular target: NAD-dependent protein deacylase sirtuin-6 (Homo sapiens) (UniProt Q8N6T7)
Sequence (Q8N6T7 whole entry, the tested form may be a part): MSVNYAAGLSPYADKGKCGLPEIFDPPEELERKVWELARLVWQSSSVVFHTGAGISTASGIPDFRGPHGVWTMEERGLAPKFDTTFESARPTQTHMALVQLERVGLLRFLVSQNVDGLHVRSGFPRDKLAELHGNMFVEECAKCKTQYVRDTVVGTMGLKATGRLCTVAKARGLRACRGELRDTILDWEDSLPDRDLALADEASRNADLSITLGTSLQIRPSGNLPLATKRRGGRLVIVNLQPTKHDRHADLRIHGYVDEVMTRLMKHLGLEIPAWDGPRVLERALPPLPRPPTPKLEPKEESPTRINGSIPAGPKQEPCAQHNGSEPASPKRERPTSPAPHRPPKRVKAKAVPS
Assay: Substrate activity at human N-terminal His-tagged SIRT6 (1 to 355 residues) expressed in Escherichia coli at 5 uM measured after 2 hrs in presence of NAD+ and trypsin by fluorescence assay
*1 amine or outer side, *2 acyl side, *3 side chain or, on linkers, in order; H or OH if unused. Where a SMILES comes first, the peptide text is derived from it. The star is where a group is joined. AMC = Cc1cc(=O)oc2cc(N*)ccc12; Suc = O=C(CCC(=O)[*:2])[*:1]
So I've got a bunch of compounds here, and I need their Activity values.
Numeric only. Scale: RFU

Value (Activity, NAD-dependent protein deacylase sirtuin-6 (Homo sapiens) (UniProt Q8N6T7)) for record CC(=O)N[C@@H](CC(C)C)C(=O)NCC(=O)N[C@@H](CO)C(=O)N[C@@H](CCCCNC(=O)CCC(=O)O)C(=O)Nc1ccc2c(C)cc(=O)oc2c1 (Ac-LGSK(Suc)-{AMC}) = 0.37

Value (Activity, NAD-dependent protein deacylase sirtuin-6 (Homo sapiens) (UniProt Q8N6T7)) for record CC(=O)NCCCC[C@H](NC(=O)[C@H](CC(C)C)NC(=O)[C@H](CCCCN)NC(=O)[C@H](Cc1ccc(O)cc1)NC(C)=O)C(=O)Nc1ccc2c(C)cc(=O)oc2c1 (Ac-YKLK(Ac)-{AMC}) = 0.39

Value (Activity, NAD-dependent protein deacylase sirtuin-6 (Homo sapiens) (UniProt Q8N6T7)) for record CC(=O)N[C@@H](Cc1cnc[nH]1)C(=O)N[C@@H](Cc1ccccc1)C(=O)N[C@@H](CO)C(=O)N[C@@H](CCCCNC(=O)CCC(=O)O)C(=O)Nc1ccc2c(C)cc(=O)oc2c1 (Ac-HFSK(Suc)-{AMC}) = 0.32

* * *

Target: UniProt Q9NXA8
Sequence (Q9NXA8 37-310 limits assumed): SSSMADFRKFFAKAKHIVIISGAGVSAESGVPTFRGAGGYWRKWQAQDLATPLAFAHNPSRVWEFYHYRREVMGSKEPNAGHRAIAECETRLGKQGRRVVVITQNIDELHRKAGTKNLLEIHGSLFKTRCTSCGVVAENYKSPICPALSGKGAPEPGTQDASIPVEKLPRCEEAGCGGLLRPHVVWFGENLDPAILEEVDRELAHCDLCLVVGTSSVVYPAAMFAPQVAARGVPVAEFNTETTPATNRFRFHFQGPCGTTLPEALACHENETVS
Test: Substrate activity at human N-terminal His-tagged SIRT5 (34 to 302 residues) expressed in Escherichia coli at 5 uM measured after 2 hrs in presence of NAD+ and trypsin by fluorescence assay
*1 amine or outer side, *2 acyl side, *3 side chain or, on linkers, in order; H or OH if unused. Where a SMILES comes first, the peptide text is derived from it. The star is where a group is joined. AMC = Cc1cc(=O)oc2cc(N*)ccc12; Suc = O=C(CCC(=O)[*:2])[*:1]; Decanoyl = CCCCCCCCCC(=O)*
quantity: Activity (RFU)
Numeric only. Scale: RFU

Reported Activity for CCCCCCCCCC(=O)NCCCC[C@H](NC(=O)[C@H](CCC(N)=O)NC(=O)[C@@H](NC(=O)[C@H](CCCCN)NC(C)=O)C(C)C)C(=O)Nc1ccc2c(C)cc(=O)oc2c1 (Ac-KVQK(Decanoyl)-{AMC}) was 0.24

Reported Activity for CC(=O)N[C@@H](CO)C(=O)N[C@@H](CC(C)C)C(=O)NCC(=O)N[C@@H](CCCCNC(=O)CCC(=O)O)C(=O)Nc1ccc2c(C)cc(=O)oc2c1 (Ac-SLGK(Suc)-{AMC}) was 21.5

Reported Activity for CC(=O)N[C@@H](CC(C)C)C(=O)NCC(=O)N[C@@H](CO)C(=O)N[C@@H](CCCCNC(=O)CCC(=O)O)C(=O)Nc1ccc2c(C)cc(=O)oc2c1 (Ac-LGSK(Suc)-{AMC}) was 25.1

Reported Activity for CC[C@H](C)[C@H](NC(=O)[C@H](CC(C)C)NC(=O)[C@H](CCCNC(=N)N)NC(C)=O)C(=O)N[C@@H](CCCCNC(C)=O)C(=O)Nc1ccc2c(C)cc(=O)oc2c1 (Ac-RLIK(Ac)-{AMC}) was 0.27

Reported Activity for CC(=O)NCCCC[C@H](NC(=O)[C@H](CCCNC(=N)N)NC(=O)[C@H](CO)NC(=O)[C@H](CC(N)=O)NC(C)=O)C(=O)Nc1ccc2c(C)cc(=O)oc2c1 (Ac-NSRK(Ac)-{AMC}) was 0.28
